Assay remarks: qHTS profiling of the MIPE4 collection as inhibitors of Plasmodium falciparum (HB3) proliferation (AID 743347)
Experimental conditions: P. falciparum HB3 in erythrocytes, SYBR Green DNA, 72 h; at 28.5 µM (top of the series) unless noted
Assign labels as follows, please: MET for growth, % of control below 7%; NOT MET for growth, % of control equal to or exceeding 7%.

[[record]]
substance_smiles = "Cc1cn2c(-c3cn[nH]c3)cnc2c(Nc2ccc(C(=O)N3CCNCC3)cc2F)n1"
category_label = "MET"

[[record]]
substance_smiles = "O=C(CCCCCCNC(=O)c1cnc(N(c2ccccc2)c2ccccc2)nc1)NO"
category_label = "NOT MET"

[[record]]
substance_smiles = "CC(C)(C)NC(=O)[C@H]1CN(Cc2cccnc2)CCN1C[C@@H](O)C[C@@H](Cc1ccccc1)C(=O)N[C@H]1c2ccccc2C[C@H]1O"
category_label = "NOT MET"

[[record]]
substance_smiles = "O=C(C=Cc1cccnc1)NCCCCC1CCN(C(=O)c2ccccc2)CC1"
category_label = "NOT MET"

[[record]]
substance_smiles = "CC(C)=CCCC(C)=CCCC(C)=CCSc1ccccc1C(=O)O"
category_label = "NOT MET"

[[record]]
substance_smiles = "Cc1cc(Nc2cc(CN3CCOCC3)c3nc(C)c(Cc4ccc(Cl)cc4F)n3n2)n[nH]1"
category_label = "MET"

[[record]]
substance_smiles = "COc1cc(C(C)C)c2c(c1)S(=O)(=O)N(COc1cc(=O)n3cccc(OCCN4CCCCC4)c3n1)C2=O"
category_label = "NOT MET"


---

Assay remarks: Quantitative High-Throughput drug screen in 47 multiple myeloma cell lines against the NCATS MIPE library collection: RPMI8226_ATCC cell viability assay (AID 1919871); note: nearly all actives have a fitted effect of over 30% in size
Experimental conditions: RPMI8226 myeloma viability, CellTiter-Glo ATP luminescence, 48 h; series mostly up to 45.8 µM
Inconclusive results are not listed. Calls of active or inactive are those of the source. The call rests on the fitted dose curve; in most records, active means well fitted cell-killing curve with a large enough effect; inconclusive means small, poorly fitted or top-dose-only effect, or effect the other way; inactive means no such curve, though single readings can be large or run the other way.
Possible outcomes: Y for active, N for inactive

[[record]]
substance_smiles = "COC(=O)Nc1ccc(-c2nc(N3CCOCC3)c3cnn(C4CCN(Cc5cccnc5)CC4)c3n2)cc1"
category_label = "Y"

[[record]]
substance_smiles = "CN(C)Cc1c(C(=O)NCCOc2ccc(C(=O)NO)cc2)oc2ccccc12"
category_label = "Y"

[[record]]
substance_smiles = "CCC1=C[C@@H]2CN(C1)Cc1c([nH]c3ccccc13)[C@@](C(=O)OC)(c1cc3c(cc1OC)N(C)[C@@H]1[C@@](O)(C(=O)OC)[C@H](OC(C)=O)[C@]4(CC)C=CCN5CC[C@]31[C@@H]54)C2"
category_label = "Y"

[[record]]
substance_smiles = "Cc1nc(Nc2n[nH]c3c2CN(C(=O)N[C@H](CN(C)C)c2ccccc2)C3(C)C)c2sccc2n1"
category_label = "Y"

[[record]]
substance_smiles = "CCN1CCN(CC(=O)Nc2ccc(-c3cccc4c(=O)cc(N5CCOCC5)oc34)c3sc4ccccc4c23)CC1"
category_label = "Y"

[[record]]
substance_smiles = "N#Cc1c(O)c2c(-c3ccc(-c4ccccc4O)cc3)csc2[nH]c1=O"
category_label = "N"

[[record]]
substance_smiles = "COc1cc2c(NC3CCN(C(C)C)CC3)nc(C3CCCCC3)nc2cc1OCCCN1CCCC1"
category_label = "Y"

[[record]]
substance_smiles = "Cc1ccc(S(=O)(=O)Nc2cc(Cl)ccc2C(=O)Nc2nc(-c3ccccc3)cs2)cc1"
category_label = "Y"

[[record]]
substance_smiles = "C[C@]1(CO)CN(c2cc(C(=O)Nc3ccc4c(c3)-c3c(c(C(N)=O)nn3-c3ccc(F)cc3)CC4)c(Cl)cn2)C[C@@]1(C)CO"
category_label = "Y"


---

Test system: WaGa
Assay remarks: qHTS assay to identify novel small-molecules to repurpose for Merkel cell carcinoma treatment (AID 1296009); note: nearly all actives have a fitted effect of over 60% in size
Experimental conditions: MCC and control cell lines, CellTiter-Glo viability, 72 h; series mostly up to 46 µM
Inconclusive results are not listed. Calls of active or inactive are those of the source. The call rests on the fitted dose curve; in most records, active means well fitted inhibition curve with a large enough effect; inconclusive means small, poorly fitted or top-dose-only effect; inactive means flat fitted curve, though single readings scatter.
Possible outcomes: active, inactive

[[record]]
molecule = "CCN(CC)CCNC(=O)c1ccc2nc(-c3ccccc3)c(-c3ccc(CN4CCC(n5c(=O)[nH]c6ccccc65)CC4)cc3)nc2c1"
category_label = "active"

[[record]]
molecule = "CC=CC1=C(C(=O)O)N2C(=O)[C@H](NC(=O)[C@H](N)c3ccc(O)cc3)[C@@H]2SC1"
category_label = "inactive"

[[record]]
molecule = "CC(C)(C)c1cc(C(C)(C)C)c(NC(=O)c2c[nH]c3ccccc3c2=O)cc1O"
category_label = "inactive"

[[record]]
molecule = "Nc1ccc(S(=O)(=O)Nc2ncccn2)cc1"
category_label = "inactive"

[[record]]
molecule = "O=C(c1cncc(Br)c1)N1CCC(N2CCCC2)CC1"
category_label = "inactive"

[[record]]
molecule = "CCCCCN(CCC12CC3CC(CC(C3)C1)C2)C(=O)NCCCc1ccncc1"
category_label = "inactive"

[[record]]
molecule = "O=C(O)CCCc1c[nH]c2ccccc12"
category_label = "inactive"

[[record]]
molecule = "Cn1c(CNc2ccc(C(=N)N)cc2)nc2cc(C(=O)N(CCC(=O)O)c3ccccn3)ccc21"
category_label = "inactive"

[[record]]
molecule = "COc1cc(C(C)C)c2c(c1)S(=O)(=O)N(COc1cc(=O)n3cccc(OCCN4CCCCC4)c3n1)C2=O"
category_label = "inactive"

[[record]]
molecule = "Cc1cn2cc(C(=O)N(C)CCO)cc(N[C@@H]3CCOc4cccc(C)c43)c2n1"
category_label = "inactive"

[[record]]
molecule = "COc1cc(C(=O)NS(=O)(=O)c2ccccc2C)ccc1Cc1cn(C)c2ccc(NC(=O)OC3CCCC3)cc12"
category_label = "inactive"

[[record]]
molecule = "C[C@@]12O[C@@H](C[C@]1(O)CO)n1c3ccccc3c3c4c(c5c6ccccc6n2c5c31)CNC4=O"
category_label = "active"

[[record]]
molecule = "C=C1C(=CC=C2CCCC3(C)[C@@H]([C@H](C)C=CC=CC(O)(CC)CC)CC[C@@H]23)C[C@@H](O)C[C@@H]1O (some centres not stated)"
category_label = "active"

[[record]]
molecule = "Cn1cncc1[C@@](N)(c1ccc(Cl)cc1)c1ccc2c(c1)c(-c1cccc(Cl)c1)cc(=O)n2C"
category_label = "active"

[[record]]
molecule = "COc1cc2c(cc1-c1c(C)noc1C)ncc1[nH]c(=O)n([C@H](C)c3ccccn3)c12"
category_label = "active"

[[record]]
molecule = "COC(=O)C[C@](O)(CCCC(C)(C)O)C(=O)O[C@@H]1C(OC)=C[C@]23CCCN2CCc2cc4c(cc2[C@H]13)OCO4"
category_label = "inactive"

[[record]]
molecule = "CCc1c2c(nc3ccc(O)cc13)-c1cc3c(c(=O)n1C2)COC(=O)[C@]3(O)CC"
category_label = "active"

[[record]]
molecule = "Clc1cccc(-n2nnnc2NCc2ccccc2Oc2ccccn2)c1Cl"
category_label = "inactive"

[[record]]
molecule = "C#Cc1cccc(Nc2ncnc3cc(OC)c(OCCCCCCC(=O)NO)cc23)c1"
category_label = "active"

[[record]]
molecule = "CC(=O)OCCN1C(=O)c2c(C)nc3ccc(S(=O)(=O)N4CCOCC4)cc3c2C1=O"
category_label = "inactive"

[[record]]
molecule = "C=C1C(=CC=C2CCC[C@]3(C)[C@@H]([C@H](C)C=C[C@H](C)C(C)C)CC[C@@H]23)C[C@@H](O)C[C@@H]1O"
category_label = "active"

[[record]]
molecule = "Cc1cccc(C=NNc2cc(N3CCOCC3)nc(OCCc3ccccn3)n2)c1"
category_label = "inactive"

[[record]]
molecule = "Cc1coc2c1C(=O)C(=O)c1c-2ccc2c1CCCC2(C)C"
category_label = "inactive"

[[record]]
molecule = "CC1=C(CO)C(=O)O[C@@H]([C@@H](C)[C@H]2CC[C@H]3[C@@H]4C[C@H]5O[C@]56[C@@H](O)C=CC(=O)[C@]6(C)[C@@H]4CC[C@]23C)C1"
category_label = "active"

[[record]]
molecule = "c1cc(-c2cnn3cc(-c4ccc(OCCN5CCCCC5)cc4)cnc23)ccn1"
category_label = "active"

[[record]]
molecule = "O=C(NCCCNc1nc(Nc2cccc(NC(=O)N3CCCC3)c2)ncc1I)c1cccs1"
category_label = "active"

[[record]]
molecule = "CCCCc1nc2cc(C=CC(=O)NO)ccc2n1CCN(CC)CC"
category_label = "active"

[[record]]
molecule = "Cc1cc(Nc2ncnc3ccc(-c4ccc(CNCCS(C)(=O)=O)o4)cc23)ccc1Oc1ccn2ncnc2c1"
category_label = "active"

[[record]]
molecule = "Nc1nc(-c2nn(Cc3ccccc3F)c3ncccc23)nc(N)c1N1CCOCC1"
category_label = "inactive"

[[record]]
molecule = "CCCn1c(=O)c2[nH]c(-c3cnn(Cc4cccc(C(F)(F)F)c4)c3)nc2n(CC)c1=O"
category_label = "inactive"

[[record]]
molecule = "CN(C1CCc2c(c3ccccc3n2CC(=O)O)C1)S(=O)(=O)c1ccc(F)cc1 (configuration not stated)"
category_label = "active"

[[record]]
molecule = "c1ccc2c(CCNc3ccc(Nc4ccncc4)cc3)c[nH]c2c1"
category_label = "active"

[[record]]
molecule = "COc1ccc(-n2nc(C(N)=O)c3c2C(=O)N(c2ccc(N4CCCCC4=O)cc2)CC3)cc1"
category_label = "inactive"

[[record]]
molecule = "CCOc1ccccc1OCCNC(C)Cc1ccc(OC)c(S(N)(=O)=O)c1 (configuration not stated)"
category_label = "inactive"

[[record]]
molecule = "CC(C)C[C@H](NC(=O)CNC(=O)c1cc(Cl)ccc1Cl)B(O)O"
category_label = "active"

[[record]]
molecule = "Cc1cc(Nc2cc(NC(=O)c3c(Cl)cccc3Cl)ccn2)nc(N)n1"
category_label = "active"

[[record]]
molecule = "Cc1nc2ccc(CN(C)c3ccc(C(=O)N[C@@H](CCC(=O)O)C(=O)O)s3)cc2c(=O)[nH]1"
category_label = "active"

